Sourced from patent US12391683B2

measurementTarget: TRPV3 channels (Homo sapiens, UniProt Q8NET8)
Construct: expressed in transfected cells; host or cells: HEK293 (transient)
Sequence (Q8NET8 1-790): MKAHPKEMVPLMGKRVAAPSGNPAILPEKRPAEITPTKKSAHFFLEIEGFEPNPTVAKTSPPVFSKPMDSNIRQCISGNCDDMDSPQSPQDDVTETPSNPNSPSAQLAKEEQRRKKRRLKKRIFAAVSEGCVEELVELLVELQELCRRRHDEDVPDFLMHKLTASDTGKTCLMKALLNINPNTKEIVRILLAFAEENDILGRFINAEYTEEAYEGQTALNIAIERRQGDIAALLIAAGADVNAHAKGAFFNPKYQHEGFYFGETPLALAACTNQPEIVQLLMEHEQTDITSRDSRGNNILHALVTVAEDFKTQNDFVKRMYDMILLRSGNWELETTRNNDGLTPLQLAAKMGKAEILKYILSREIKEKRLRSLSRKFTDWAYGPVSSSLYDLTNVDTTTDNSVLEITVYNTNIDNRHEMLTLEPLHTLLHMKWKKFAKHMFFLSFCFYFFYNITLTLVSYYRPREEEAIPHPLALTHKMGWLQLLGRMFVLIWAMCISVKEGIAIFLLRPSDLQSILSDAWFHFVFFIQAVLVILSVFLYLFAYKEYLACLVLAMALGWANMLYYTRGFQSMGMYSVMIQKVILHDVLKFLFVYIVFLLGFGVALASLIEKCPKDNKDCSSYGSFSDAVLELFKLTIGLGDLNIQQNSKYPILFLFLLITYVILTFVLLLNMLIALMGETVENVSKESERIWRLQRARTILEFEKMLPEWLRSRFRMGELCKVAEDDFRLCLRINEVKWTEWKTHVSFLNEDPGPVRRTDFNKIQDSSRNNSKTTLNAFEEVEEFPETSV
assayText: TRP Family FLIPR Assay, TRPV3
Type: cell-based
protocolConditions: agonist mode; vs EMAX of cannabidiol 300 μM; HEK293 cells (transient); read-out: EC50 hTRPV3
recordedEndpoint: EC50

Input CC(C)(O)c1cnc(N2C[C@@]3(CC[C@@H](F)[C@](C)(Cn4cnc5ccc(C#N)cc54)C3)OC2=O)cn1 (single isomer, unassigned) . Output EC50: > 10 µM

###

For each entry below, report its Hepatocytes predicted clearance in dog value.
Test system: Hepatocytes
assayText: Hepatocytes predicted clearance, dog
One number for each entry, in mL/min/kg.

Solved entries:
CC(C)(O)c1cnc(N2C[C@@]3(CCC(F)(F)[C@H](Cn4cnc5ccc(C#N)cc54)C3)OC2=O)cn1 : 1.3
CC1(C)C[C@](C)(Cn2cnc3ccc(C#N)cc32)C[C@@]2(CN(c3cnc(C(C)(C)O)cn3)C(=O)O2)C1 (single isomer, unassigned) : 1.3
CC(C)(O)c1cnc(N2C[C@@]3(CCC[C@](C)(Cn4cnc5ccc(C#N)cc54)C3)OC2=O)cn1 [GSK2798745, reference compound] : 7.17
CC(C)(C)CN1C[C@@]2(CCC(F)(F)[C@H](Cn3cnc4ccc(C#N)cc43)C2)OC1=O (single isomer, unassigned) : 63.3
CC(C)(O)c1cnc(N2C[C@@]3(CCC(C)(C)[C@H](Cn4cnc5ccc(C#N)cc54)C3)OC2=O)cn1 (single isomer, unassigned) : 11.5

Here's the next entry for you.
Input CC(C)(O)c1cnc(N2C[C@@]3(CCC4(CC4)[C@@H](Cn4cnc5ccc(C#N)cc54)C3)OC2=O)cn1 (single isomer, unassigned) . Output Hepatocytes predicted clearance in dog: 17.3

###

measurementTarget: TRPC3 channels (Homo sapiens)
Sequence (Q13507 whole entry): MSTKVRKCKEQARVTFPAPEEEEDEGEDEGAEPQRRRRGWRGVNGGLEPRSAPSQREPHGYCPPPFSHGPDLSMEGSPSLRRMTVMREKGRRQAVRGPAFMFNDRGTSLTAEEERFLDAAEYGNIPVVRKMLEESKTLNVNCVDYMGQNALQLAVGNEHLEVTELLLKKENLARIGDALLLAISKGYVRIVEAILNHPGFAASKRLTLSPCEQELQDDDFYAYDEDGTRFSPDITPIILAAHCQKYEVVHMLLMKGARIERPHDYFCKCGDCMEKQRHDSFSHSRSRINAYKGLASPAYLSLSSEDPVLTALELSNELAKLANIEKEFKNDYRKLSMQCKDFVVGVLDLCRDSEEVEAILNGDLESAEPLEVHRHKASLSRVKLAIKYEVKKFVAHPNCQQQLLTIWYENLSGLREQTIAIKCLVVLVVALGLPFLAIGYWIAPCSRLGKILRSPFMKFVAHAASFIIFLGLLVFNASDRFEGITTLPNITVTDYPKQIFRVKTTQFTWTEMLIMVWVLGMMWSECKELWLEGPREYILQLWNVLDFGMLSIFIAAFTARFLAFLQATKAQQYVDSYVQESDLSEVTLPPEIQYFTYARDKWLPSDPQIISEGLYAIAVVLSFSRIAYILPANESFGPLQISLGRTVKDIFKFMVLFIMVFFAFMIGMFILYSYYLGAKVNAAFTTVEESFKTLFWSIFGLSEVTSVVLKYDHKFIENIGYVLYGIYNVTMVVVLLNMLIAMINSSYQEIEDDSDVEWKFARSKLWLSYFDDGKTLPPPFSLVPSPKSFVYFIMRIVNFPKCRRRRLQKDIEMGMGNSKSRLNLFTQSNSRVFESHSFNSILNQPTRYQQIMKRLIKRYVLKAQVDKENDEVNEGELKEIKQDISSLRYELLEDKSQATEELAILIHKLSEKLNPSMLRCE
assayText: TRP Family FLIPR Assay, TRPC3
protocolConditions: agonist mode; vs EMAX of GSK1702934A 30 μM; HEK293 cells; read-out: EC50 hTRPC3
recordedEndpoint: EC50

Input CC(C)(O)c1cnc(N2C[C@@]3(CC[C@@H](F)[C@](C)(Cn4cnc5ccc(C#N)cc54)C3)OC2=O)cn1 (single isomer, unassigned) [Example 5] . Output EC50: > 10 µM

###

Tested on: Hepatocytes
assayText: Hepatocytes predicted clearance, cyno
# note: exactly 40 mL/min/kg is not below, so it is false; use true for Hepatocytes predicted clearance in cyno strictly under it

Examples with answers:
CC(C)(O)c1cnc(N2C[C@@]3(CC[C@@H](F)[C@](C)(Cn4cnc5ccc(C#N)cc54)C3)OC2=O)cn1 (single isomer, unassigned) [Example 5] : true
N#Cc1ccc2ncn(C[C@@H]3C[C@@]4(CCC3(F)F)CN(c3ccccc3Cl)C(=O)O4)c2c1 (single isomer, unassigned) [Example 12] : false
C=C1CC[C@@]2(CN(c3cnc(C(C)(C)O)cn3)C(=O)O2)C[C@@]1(C)Cn1cnc2ccc(C#N)cc21 (single isomer, unassigned) [Example 16] : true
CC(C)(O)c1cnc(N2C[C@@]3(CCC[C@](CF)(Cn4cnc5ccc(C#N)cc54)C3)OC2=O)cn1 (single isomer, unassigned) [Example 7] : true
CC(C)(O)c1cnc(N2C[C@@]3(CCC[C@](C)(Cn4cnc5ccc(C#N)cc54)C3)OC2=O)cn1 [GSK2798745, reference compound] : true
CC1(C)C[C@](C)(Cn2cnc3ccc(C#N)cc32)C[C@@]2(CN(c3cnc(C(C)(C)O)cn3)C(=O)O2)C1 (single isomer, unassigned) [Example 17] : false

**Query** Determine whether this molecule shows Hepatocytes predicted clearance in cyno lower than 40 mL/min/kg (ties excluded): CC(C)(C)CN1C[C@@]2(CCC(F)(F)[C@H](Cn3cnc4ccc(C#N)cc43)C2)OC1=O (single isomer, unassigned) [Example 11]
**Result** false

###

measurementTarget: TRPV2 channels (Homo sapiens)
Sequence (Q9Y5S1 whole entry): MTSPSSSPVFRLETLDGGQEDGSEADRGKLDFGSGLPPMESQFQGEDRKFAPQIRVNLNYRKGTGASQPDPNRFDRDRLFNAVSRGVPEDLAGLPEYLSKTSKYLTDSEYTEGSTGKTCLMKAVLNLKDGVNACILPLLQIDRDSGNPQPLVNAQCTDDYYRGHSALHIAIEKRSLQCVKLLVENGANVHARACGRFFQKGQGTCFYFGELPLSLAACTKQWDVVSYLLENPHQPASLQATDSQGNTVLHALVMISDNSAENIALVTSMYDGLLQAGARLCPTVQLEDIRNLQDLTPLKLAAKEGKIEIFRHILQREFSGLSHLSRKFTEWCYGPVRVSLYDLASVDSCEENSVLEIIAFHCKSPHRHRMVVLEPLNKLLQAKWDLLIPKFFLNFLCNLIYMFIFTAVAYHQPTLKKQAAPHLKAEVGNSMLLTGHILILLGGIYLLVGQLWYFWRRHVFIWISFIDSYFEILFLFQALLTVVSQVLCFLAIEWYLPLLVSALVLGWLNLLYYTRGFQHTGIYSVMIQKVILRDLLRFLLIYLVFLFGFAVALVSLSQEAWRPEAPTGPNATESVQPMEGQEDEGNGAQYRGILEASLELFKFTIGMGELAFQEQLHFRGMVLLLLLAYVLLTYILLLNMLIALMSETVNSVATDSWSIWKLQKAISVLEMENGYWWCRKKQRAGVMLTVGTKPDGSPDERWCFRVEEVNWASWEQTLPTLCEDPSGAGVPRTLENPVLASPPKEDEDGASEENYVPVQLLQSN
assayText: TRP Family FLIPR Assay, TRPV2
protocolConditions: antagonist mode; activated with capsaicin 100 μM; HEK293 cells (transient); 0.003-10 μM; read-out: IC50 hTRPV2
recordedEndpoint: IC50

IC50 value, target or system TRPV2 channels (Homo sapiens), for CC(C)(O)c1cnc(N2C[C@@]3(CC[C@@H](F)[C@](C)(Cn4cnc5ccc(C#N)cc54)C3)OC2=O)cn1 (single isomer, unassigned) : > 10 µM

###

measurementTarget: TRPC5 channels (Homo sapiens, UniProt Q9UL62)
Sequence (Q9UL62 whole entry): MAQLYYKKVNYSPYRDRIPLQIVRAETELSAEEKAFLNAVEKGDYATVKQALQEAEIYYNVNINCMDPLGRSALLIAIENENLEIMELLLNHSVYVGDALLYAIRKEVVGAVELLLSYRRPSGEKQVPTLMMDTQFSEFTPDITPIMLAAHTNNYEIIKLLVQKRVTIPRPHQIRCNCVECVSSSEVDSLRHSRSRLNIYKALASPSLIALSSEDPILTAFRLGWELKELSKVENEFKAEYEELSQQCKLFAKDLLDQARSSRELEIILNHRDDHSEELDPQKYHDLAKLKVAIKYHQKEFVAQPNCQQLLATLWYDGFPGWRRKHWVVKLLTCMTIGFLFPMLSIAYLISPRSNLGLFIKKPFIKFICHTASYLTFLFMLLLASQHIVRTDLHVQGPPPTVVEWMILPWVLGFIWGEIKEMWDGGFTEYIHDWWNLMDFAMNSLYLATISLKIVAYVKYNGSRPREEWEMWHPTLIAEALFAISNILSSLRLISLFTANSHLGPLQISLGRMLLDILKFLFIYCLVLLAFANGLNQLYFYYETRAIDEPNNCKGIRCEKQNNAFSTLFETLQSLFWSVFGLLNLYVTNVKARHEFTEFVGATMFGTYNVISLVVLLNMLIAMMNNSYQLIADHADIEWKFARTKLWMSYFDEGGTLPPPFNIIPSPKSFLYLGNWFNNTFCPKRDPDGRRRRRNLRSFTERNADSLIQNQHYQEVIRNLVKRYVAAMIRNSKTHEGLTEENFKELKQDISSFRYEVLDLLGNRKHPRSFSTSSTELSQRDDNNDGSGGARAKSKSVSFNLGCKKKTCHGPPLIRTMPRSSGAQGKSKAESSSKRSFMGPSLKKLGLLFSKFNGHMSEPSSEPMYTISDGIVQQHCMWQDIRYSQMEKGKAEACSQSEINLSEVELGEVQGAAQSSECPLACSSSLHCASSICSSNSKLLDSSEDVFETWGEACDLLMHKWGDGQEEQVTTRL
assayText: TRP Family FLIPR Assay, TRPC5
protocolConditions: antagonist mode; activated with 0.5 μM (−)-Englerin A; HEK293 cells; 0.003-10 μM; read-out: IC50 hTRPC5
recordedEndpoint: IC50

Input CC(C)(O)c1cnc(N2C[C@@]3(CC[C@@H](F)[C@](C)(Cn4cnc5ccc(C#N)cc54)C3)OC2=O)cn1 (single isomer, unassigned) [Example 5] . Output IC50: > 10 µM

###

measurementTarget: TRPC6 channels (Homo sapiens, UniProt Q9Y210)
Sequence (Q9Y210 whole entry): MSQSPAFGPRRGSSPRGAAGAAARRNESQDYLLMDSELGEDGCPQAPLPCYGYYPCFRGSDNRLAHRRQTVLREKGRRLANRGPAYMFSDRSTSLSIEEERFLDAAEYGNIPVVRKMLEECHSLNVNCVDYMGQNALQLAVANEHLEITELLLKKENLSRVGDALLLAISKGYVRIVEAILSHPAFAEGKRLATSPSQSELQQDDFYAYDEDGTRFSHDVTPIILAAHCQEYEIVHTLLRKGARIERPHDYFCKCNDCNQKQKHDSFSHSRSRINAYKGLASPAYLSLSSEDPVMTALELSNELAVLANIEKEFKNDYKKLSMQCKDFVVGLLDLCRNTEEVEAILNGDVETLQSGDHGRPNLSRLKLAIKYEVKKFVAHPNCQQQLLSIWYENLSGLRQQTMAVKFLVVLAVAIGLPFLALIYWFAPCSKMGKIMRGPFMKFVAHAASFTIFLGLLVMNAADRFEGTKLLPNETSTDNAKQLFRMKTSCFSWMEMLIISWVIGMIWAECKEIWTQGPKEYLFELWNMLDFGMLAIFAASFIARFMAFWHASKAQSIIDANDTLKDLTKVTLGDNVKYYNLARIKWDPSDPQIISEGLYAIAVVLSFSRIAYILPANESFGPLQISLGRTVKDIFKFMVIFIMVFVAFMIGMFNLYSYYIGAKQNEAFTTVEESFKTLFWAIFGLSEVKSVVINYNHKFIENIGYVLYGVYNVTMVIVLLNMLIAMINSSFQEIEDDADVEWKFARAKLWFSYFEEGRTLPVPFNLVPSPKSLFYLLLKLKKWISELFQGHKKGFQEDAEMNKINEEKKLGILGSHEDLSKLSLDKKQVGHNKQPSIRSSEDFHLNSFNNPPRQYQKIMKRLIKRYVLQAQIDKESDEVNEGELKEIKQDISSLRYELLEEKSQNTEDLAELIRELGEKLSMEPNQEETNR
assayText: TRP Family FLIPR Assay, TRPC6
protocolConditions: agonist mode; vs EMAX of Na-ATP 100 μM; HEK293 cells; read-out: EC50 hTRPC6
pEC50: −log10 of the molar value.
recordedEndpoint: pEC50

Input CC(C)(O)c1cnc(N2C[C@@]3(CC[C@@H](F)[C@](C)(Cn4cnc5ccc(C#N)cc54)C3)OC2=O)cn1 (single isomer, unassigned) . Output pEC50: < 5.00

###

For each entry below, report its IC50 value.
measurementTarget: Human TRPV4 (Homo sapiens, UniProt Q9HBA0)
Sequence (Q9HBA0 whole entry): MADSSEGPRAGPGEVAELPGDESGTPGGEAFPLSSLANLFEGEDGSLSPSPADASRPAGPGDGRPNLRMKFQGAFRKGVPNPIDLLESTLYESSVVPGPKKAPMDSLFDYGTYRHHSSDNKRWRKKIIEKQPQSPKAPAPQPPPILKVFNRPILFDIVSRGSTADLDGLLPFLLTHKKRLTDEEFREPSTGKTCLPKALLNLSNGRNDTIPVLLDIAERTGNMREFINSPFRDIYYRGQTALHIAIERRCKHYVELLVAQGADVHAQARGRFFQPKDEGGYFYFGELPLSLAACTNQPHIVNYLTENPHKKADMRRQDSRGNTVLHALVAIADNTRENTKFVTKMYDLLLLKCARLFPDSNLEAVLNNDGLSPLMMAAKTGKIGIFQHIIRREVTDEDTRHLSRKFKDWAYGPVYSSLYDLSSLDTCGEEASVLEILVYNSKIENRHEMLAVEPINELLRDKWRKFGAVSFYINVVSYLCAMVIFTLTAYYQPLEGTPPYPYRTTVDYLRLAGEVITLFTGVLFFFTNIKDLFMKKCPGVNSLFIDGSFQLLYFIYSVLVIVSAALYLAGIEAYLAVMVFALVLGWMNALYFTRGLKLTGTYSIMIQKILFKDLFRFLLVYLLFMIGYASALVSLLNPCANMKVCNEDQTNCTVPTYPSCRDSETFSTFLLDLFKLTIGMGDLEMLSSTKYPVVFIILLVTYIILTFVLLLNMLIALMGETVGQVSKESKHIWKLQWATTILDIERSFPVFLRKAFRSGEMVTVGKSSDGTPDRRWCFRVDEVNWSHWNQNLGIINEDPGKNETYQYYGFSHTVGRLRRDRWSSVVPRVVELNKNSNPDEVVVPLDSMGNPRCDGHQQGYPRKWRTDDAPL
assayText: TRPV4 calcium flux assay (FLIPR, antagonist mode)
Assay type: cell-based
Design: HiBiT (inferred from the expression read-out); host or cells: HEK293T
protocolConditions: HEK293T cells transfected with hTRPV4; antagonist mode vs EC80 of TRPV4 agonist; average of at least 3 separate experiments; read-out: Human TRPV4 Ca2+ Assay IC50
Report field: quantity (unit follows the number).

Would you mind giving IC50 for every compound in the list below?
1. CC(C)(O)c1cnc(N2C[C@@]3(CC[C@@H](F)[C@](C)(Cn4cnc5cc(F)c(C#N)cc54)C3)OC2=O)cn1 (single isomer, unassigned)
2. CC(C)(O)c1cnc(N2C[C@@]3(CCC4(CC4)[C@@H](Cn4cnc5ccc(C#N)cc54)C3)OC2=O)cn1 (single isomer, unassigned)
3. CO[C@@H]1CC[C@@]2(CN(c3cnc(C(C)(C)O)cn3)C(=O)O2)C[C@@]1(C)Cn1cnc2ccc(C#N)cc21 (single isomer, unassigned)
4. CC(C)(C)CN1C[C@@]2(CCC(F)(F)[C@H](Cn3cnc4ccc(C#N)cc43)C2)OC1=O (single isomer, unassigned)
5. CC(C)(O)c1cnc(N2C[C@@]3(CCC(F)(F)[C@H](Cn4cnc5ccc(C#N)cc54)C3)OC2=O)cn1
6. CC(C)(O)c1cnc(N2C[C@@]3(CCC4(CC4)[C@](C)(Cn4cnc5ccc(C#N)cc54)C3)OC2=O)cn1 (single isomer, unassigned)

**Result**
1. 9 nM
2. 852 nM
3. 158 nM
4. 39 nM
5. 217 nM
6. 8 nM

###

Tested on: Hepatocytes
assayText: Hepatocytes predicted clearance, rat
recordedEndpoint: Hepatocytes predicted clearance in rat (mL/min/kg)
Numbers only, in mL/min/kg.

Solved entries:
CC(C)(O)c1cnc(N2C[C@@]3(CCC4(CC4)[C@@H](Cn4cnc5ccc(C#N)cc54)C3)OC2=O)cn1 (single isomer, unassigned) : 79.5
CC(C)(O)c1cnc(N2C[C@@]3(CC[C@H]4C[C@@]4(Cn4cnc5ccc(C#N)cc54)C3)OC2=O)cn1 (single isomer, unassigned) : 54.5
CC(C)(O)c1cnc(N2C[C@@]3(CC[C@@H](F)[C@](C)(Cn4cnc5ccc(C#N)cc54)C3)OC2=O)cn1 (single isomer, unassigned) : 7.67
CC(C)(O)c1cnc(N2C[C@@]3(CCC4(CC4)[C@](C)(Cn4cnc5ccc(C#N)cc54)C3)OC2=O)cn1 (single isomer, unassigned) : 8.3
CC1(C)C[C@](C)(Cn2cnc3ccc(C#N)cc32)C[C@@]2(CN(c3cnc(C(C)(C)O)cn3)C(=O)O2)C1 (single isomer, unassigned) : 39.3
CC(C)(C)CN1C[C@@]2(CCC(F)(F)[C@H](Cn3cnc4ccc(C#N)cc43)C2)OC1=O (single isomer, unassigned) : 251.2

Would you mind giving Hepatocytes predicted clearance in rat for every compound in the list below?
1. CC(C)(O)c1cnc(N2C[C@@]3(CCC[C@](C)(Cn4cnc5ccc(C#N)cc54)C3)OC2=O)cn1 [GSK2798745, reference compound]
2. CC(C)(O)c1cnc(N2C[C@@]3(CCC[C@](CF)(Cn4cnc5ccc(C#N)cc54)C3)OC2=O)cn1 (single isomer, unassigned)
3. C=C1CC[C@@]2(CN(c3cnc(C(C)(C)O)cn3)C(=O)O2)C[C@@]1(C)Cn1cnc2ccc(C#N)cc21 (single isomer, unassigned)
4. N#Cc1ccc2ncn(C[C@@H]3C[C@@]4(CCC3(F)F)CN(c3ccccc3Cl)C(=O)O4)c2c1 (single isomer, unassigned)
5. CC(C)(O)c1cnc(N2C[C@@]3(CCC(F)(F)[C@](C)(Cn4cnc5ccc(C#N)cc54)C3)OC2=O)cn1
6. CC(C)(O)c1cnc(N2C[C@@]3(CCC(C)(C)[C@H](Cn4cnc5ccc(C#N)cc54)C3)OC2=O)cn1 (single isomer, unassigned)

**Result**
1: 20.7; 2: 6.7; 3: 69.3; 4: 82.5; 5: 4.5; 6: 10.8
